# normalized growth values compiled below
Assay: chemical genetic growth profiling, strain panel (AID 1159580);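 further: tested at 20 µM; growth read once vehicle control cultures reached saturation at 30 °C; 1 = growth at the plate median or of vehicle wells; lower values mean less growth of the strain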
Settings: S. cerevisiae deletion strains, growth OD, locus YPL240C, strain hsp82, stronger effect = lower value
The whole screen tested about 5,500 compounds, of which about 2,000 (36%) were called active. Roughly 18% stayed inconclusive and do not appear here. The list shows a part of the results.
No unit in the answer, please; the number alone is enough.

{"columns": ["COMPOUND", "normalized growth"],
 "data": [
  ["C[C@@H]1C[C@@H]([C@H](O)CC2CC(=O)NC(=O)C2)C(=O)[C@@H](C)C1", 0.0556]
]}

Q. For the compound shown here, C#C[C@]1(O)CCC2C3CCc4cc(O)ccc4C3CC[C@@]21C (stereo partly specified) , give the reported normalized growth.
A. 1.02

Q. What value of measured normalized growth is listed for CCN(CC)CCOC(=O)C(Cc1cccc2ccccc12)CC1CCCO1 (stereo unspecified) ?
A. 1

Q. // returns reported normalized growth for input CS(=O)(=O)OCCCCOS(C)(=O)=O
A. 1.02

Q. If you can, please state the reported normalized growth value of COS(C)(=O)=O .
A. 0.995

Q. GET /values?readout=normalized growth&item= Cc1cccc(CN2CCN(C(c3ccccc3)c3ccc(Cl)cc3)CC2)c1 (stereo unspecified)
A. 0.808
